# target of assay: GABAA receptor, benzodiazepine (BZD) binding site (rat cortical membrane)
# Construct: native receptor in cortical membrane of male Sprague-Dawley rats
# procedure details: [3H]-flumazenil competition binding; […] used for nonspecific binding

compound | units text | Ki
CN1C(=O)CN=C(c2ccccc2)c2cc(Cl)ccc21 [diazepam] | nM | 1.53

* * *

# target of assay: GABAA receptor, benzodiazepine (BZD) binding site (rat cortical membrane)
# Construct: native receptor in cortical membrane of male Sprague-Dawley rats
# procedure details: radioligand saturation binding, centrifugation separation

compound | Kd [nM]
CCOC(=O)c1ncn2c1CN(C)C(=O)c1cc(F)ccc1-2 [[3H]-flumazenil] | 1.35

* * *

# target of assay: GABAA receptor, benzodiazepine (BZD) binding site (rat cortical membrane)
# Construct: native receptor in cortical membrane of male Sprague-Dawley rats
# procedure details: [3H]-flumazenil competition binding

smiles str | Ki [nM]
Cc1cc(=O)n2nc(-c3ccccc3)oc2n1 | 1.9
